# Test description: Fraction unbound in human plasma at 1000 nM after 5 hrs by LC-MS/MS analysis
# Format: ADME, cell-free
Please provide measured fraction unbound at 5 h, 1 µM for the entries that follow.
One number for each entry.

Observe how each entry below is paired with its result.
Short answer for COC(=O)C1=C(CN2CCOC[C@H]2C(=O)O)NC(c2nccs2)=N[C@H]1c1ccc(F)c(F)c1C : fraction unbound at 5 h, 1 µM was 0.054

Short answer for CCOC(=O)C1=C(CN2CCOC[C@H]2C(=O)O)NC(c2nccs2)=N[C@H]1c1cccc(F)c1Cl : fraction unbound at 5 h, 1 µM was 0.02

Consider the additional compound presented here.
Short answer for COC(=O)C1=C(CN2CCOC[C@H]2C(=O)O)N=C(c2nccs2)N[C@H]1c1ccc(F)cc1Cl : fraction unbound at 5 h, 1 µM was 0.057

Source of measurements: ChEMBL document CHEMBL4007508
